B1: TPR 5TU (parent)
chain: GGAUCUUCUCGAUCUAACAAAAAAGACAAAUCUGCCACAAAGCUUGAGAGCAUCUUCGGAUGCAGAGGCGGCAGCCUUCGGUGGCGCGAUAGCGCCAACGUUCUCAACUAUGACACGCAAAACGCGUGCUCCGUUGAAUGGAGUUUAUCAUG

variants of: B1; test: polymerase ribozyme fitness, log enrichment relative to wild type (log ratio); higher = more active; in vitro selection for triplet polymerase activity
Variants at the floor of the assay were thinned out.
We use -2 as the dividing line for polymerase ribozyme fitness (log ratio): on or above the line is TRUE, below is FALSE.

Completed entries (count: 3):
                   variant_key  class_label
0  G88U A97U U102G G117U U139G        FALSE
1                   C93A U148C        FALSE
2        A73U C95U G140A A142C        FALSE

**Q:** Please indicate if the recorded polymerase ribozyme fitness (log ratio) for G42A A64G U102G meets or exceeds -2.
**A:** FALSE

**Q:** Now try U45A G67A C79A A91U A121G .
**A:** FALSE

**Q:** Repeat for the following variant: G86C C87G C108G
**A:** FALSE

**Q:** How about this variant: A22C A24U G50C G58A C93U G94U
**A:** FALSE

Hello, the source for this data is the RNAGym collection of RNA variant scans (doi:10.1073/pnas.2313332121), in case you need it.
